biological target: RXRα (Homo sapiens, UniProt P19793); construct: expressed in transfected cells; assay: holoreceptor transactivation assay, RXRα; type: cell-based; settings: relative to 10^-6 M cyclopropyl penta-2,4-dienoic acid reference, read-out: % efficacy, RXRα transactivation
Sequence (P19793 whole entry): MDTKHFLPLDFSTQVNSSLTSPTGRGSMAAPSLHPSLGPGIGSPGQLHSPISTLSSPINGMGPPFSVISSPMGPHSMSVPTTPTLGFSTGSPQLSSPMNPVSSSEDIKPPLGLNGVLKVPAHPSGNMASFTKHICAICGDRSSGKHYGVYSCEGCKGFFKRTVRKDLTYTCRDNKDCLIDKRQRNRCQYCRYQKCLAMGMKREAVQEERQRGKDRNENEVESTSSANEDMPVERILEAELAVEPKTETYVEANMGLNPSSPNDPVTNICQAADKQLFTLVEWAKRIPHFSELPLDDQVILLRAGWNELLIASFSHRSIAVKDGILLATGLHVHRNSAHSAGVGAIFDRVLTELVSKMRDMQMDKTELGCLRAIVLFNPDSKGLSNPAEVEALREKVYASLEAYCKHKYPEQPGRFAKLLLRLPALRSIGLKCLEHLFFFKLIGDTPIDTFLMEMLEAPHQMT
measured_quantity: Emax (%)
Numbers only, in %.

// below: answered compounds
CC(C)N1CCC(C)(C)c2ccc(N(CC3CC3)c3ccc(C(=O)O)cc3)cc21: 110
CC(C)N1CCC(C)(C)c2cc(N(C)c3ccc(C(=O)O)cc3)ccc21: 70
CC(C)CN(c1ccc(C(=O)O)cc1)c1ccc2c(c1)N(C(C)C)CCC2(C)C: 121
Cc1cc2c(cc1Nc1ccc(C(=O)O)cc1)N(C(C)C)CCC2(C)C: 103

Could you tell me Emax for each of these compounds? They are listed below.
1. CCN(c1ccc(C(=O)O)cc1)c1cc2c(cc1C)N(C(C)C)CCC2(C)C
2. CCN(c1ccc(C(=O)O)cc1)c1ccc2c(c1)C(C)(C)CC(=O)N2C(C)C
3. CCN(c1ccc(C(=O)O)cc1)c1ccc2c(c1)N(C(C)C)CCC2(C)C
4. Cc1cc2c(cc1N(C)c1ccc(C(=O)O)cc1)C(C)(C)CCN2C(C)C
5. CCN(c1ccc(C(=O)O)cc1)c1cc2c(cc1C)C(C)(C)CCN2C(C)C

Result block:
1. 90
2. 50
3. 114
4. 80
5. 94

====

molecular target: RXRγ (Mus musculus, UniProt P28705); experiment: holoreceptor transactivation assay, RXRγ; details: holoreceptor assay, read-out: RXR Trans EC50 γ
The label T is reserved for EC50 strictly under 1 nM; F covers values equal to or above it.

Previously resolved entries follow.
Cc1cc2c(cc1N(C)c1ccc(C(=O)O)cc1)C(C)(C)CCN2C(C)C: F
Cc1cc2c(cc1N(C)c1ccc(C(=O)O)cc1)N(C(C)C)CCC2(C)C: F
CCN(c1ccc(C(=O)O)cc1)c1cc2c(cc1C)C(C)(C)CCN2C(C)C: T

Field: next compound
Query block: Answer whether the compound "CC(C)N1CCC(C)(C)c2ccc(N(CC3CC3)c3ccc(C(=O)O)cc3)cc21" has EC50 strictly less than 1 nM
Result block: T

====

Molecular target: RXRγ (Mus musculus)
Sequence (P28705 1-463): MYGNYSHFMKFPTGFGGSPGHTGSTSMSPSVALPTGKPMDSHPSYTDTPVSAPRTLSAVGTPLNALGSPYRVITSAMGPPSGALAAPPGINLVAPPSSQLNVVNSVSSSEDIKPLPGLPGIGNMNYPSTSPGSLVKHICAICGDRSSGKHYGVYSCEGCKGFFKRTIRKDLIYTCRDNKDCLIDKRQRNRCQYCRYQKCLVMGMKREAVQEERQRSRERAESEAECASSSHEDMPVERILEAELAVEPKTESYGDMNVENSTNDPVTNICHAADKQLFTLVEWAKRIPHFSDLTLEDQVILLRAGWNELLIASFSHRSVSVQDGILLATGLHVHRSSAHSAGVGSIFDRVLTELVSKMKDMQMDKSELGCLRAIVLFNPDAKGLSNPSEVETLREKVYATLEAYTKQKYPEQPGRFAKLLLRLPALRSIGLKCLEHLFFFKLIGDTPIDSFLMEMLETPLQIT
Assay: holoreceptor transactivation assay, RXRγ
Conditions: holoreceptor assay, read-out: RXR Trans EC50 γ
Can you tell me EC50 for the items I'm about to list?
Answers are plain numbers, in nM.

Could you tell me EC50 for each of these molecules? They are listed below.
1. Cc1cc2c(cc1Nc1ccc(C(=O)O)cc1)N(C(C)C)CCC2(C)C
2. CC(C)N1CCC(C)(C)c2cc(N(C)c3ccc(C(=O)O)cc3)ccc21
3. Cc1cc2c(cc1N(CC1CC1)c1ccc(C(=O)O)cc1)C(C)(C)CCN2C(C)C

Result block:
1. 4
2. 1000
3. 1000

Could you tell me EC50 for each of these molecules? They are listed below.
1. CCN(c1ccc(C(=O)O)cc1)c1ccc2c(c1)C(C)(C)CCN2C(C)C
2. CCCN(c1ccc(C(=O)O)cc1)c1cc2c(cc1C)C(C)(C)CCN2C(C)C

Result block:
148
0.3
